Sourced from patent US20240383908A1

Exercise: state measured DC50 for each of the compounds provided.
- Study target: SHP2 protein (Homo sapiens)
- Sequence (Q06124 1-593): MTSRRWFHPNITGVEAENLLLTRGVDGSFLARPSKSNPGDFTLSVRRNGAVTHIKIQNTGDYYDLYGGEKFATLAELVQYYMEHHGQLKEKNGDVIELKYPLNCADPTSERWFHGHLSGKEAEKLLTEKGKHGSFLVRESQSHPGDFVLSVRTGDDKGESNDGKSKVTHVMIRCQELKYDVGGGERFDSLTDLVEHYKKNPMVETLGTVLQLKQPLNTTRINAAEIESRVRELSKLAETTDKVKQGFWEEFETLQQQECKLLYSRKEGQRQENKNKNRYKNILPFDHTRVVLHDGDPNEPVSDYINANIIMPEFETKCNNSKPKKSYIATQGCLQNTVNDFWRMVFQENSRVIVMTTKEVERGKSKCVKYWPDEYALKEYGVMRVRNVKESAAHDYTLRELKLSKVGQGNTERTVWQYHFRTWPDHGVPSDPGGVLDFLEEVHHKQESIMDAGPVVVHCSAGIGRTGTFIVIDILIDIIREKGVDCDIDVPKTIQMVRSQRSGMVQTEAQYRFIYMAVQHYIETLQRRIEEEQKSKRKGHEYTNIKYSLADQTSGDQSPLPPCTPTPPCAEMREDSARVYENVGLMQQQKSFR
- Test protocol: Degradation activity on SHP2 protein in MV-411 cells (Western blot, DC50)
- Assay type: cell-based
- Set-up: endogenous in cells
- Test conditions: MV411 cells, 24 hours, read-out: Degradation activity for differenct cell lines MV411 (DC50)

Noted DC50 for CC1(N)CCN(c2cnc(Sc3cccc(NC(=O)CCC(=O)NCCOCCOCC(=O)Nc4cccc5c4CN(C4CCC(=O)NC4=O)C5=O)c3)cn2)CC1 (centres unmarked) , tested on SHP2 protein (Homo sapiens): > 1000 nM

Noted DC50 for NC1CCN(c2cnc(Sc3cccc(NC(=O)CCCCCCN4CC5(CCN(c6ccc(C(=O)NCc7ccc8c(c7)CN(C7CCC(=O)NC7=O)C8=O)nn6)C5)C4)c3)cn2)CC1CO (centres unmarked) , tested on SHP2 protein (Homo sapiens): < 100 nM

Noted DC50 for CC1(N)CCN(c2cnc(Sc3cccc(NC(=O)CCCCCCCO[C@@H]4CCN(c5ncc(C(=O)NCc6ccc7c(c6)CN(C6CCC(=O)NC6=O)C7=O)cn5)C4)c3)cn2)CC1 (some centres unmarked) , tested on SHP2 protein (Homo sapiens): < 100 nM

Noted DC50 for NC1CN(c2cnc(Sc3cccc(NC(=O)CCCCCCN4CC5(CCN(c6ccc(C(=O)NCc7ccc8c(c7)CN(C7CCC(=O)NC7=O)C8=O)nn6)C5)C4)c3)cn2)CC1O (centres unmarked) , tested on SHP2 protein (Homo sapiens): > 1000 nM

Noted DC50 for CC1(N)CCN(c2cnc(Sc3cccc(NC(=O)CCCCCCCC(=O)NCc4ccc5c(c4)CN(C4CCC(=O)NC4=O)C5=O)c3)cn2)CC1 (centres unmarked) , tested on SHP2 protein (Homo sapiens): 100 to 1000 nM

Noted DC50 for N[C@H]1CCN(c2cnc(Sc3cccc(NC(=O)CCCCCN4CC5(CCN(c6ccc(C(=O)NCc7ccc8c(c7)CN(C7CCC(=O)NC7=O)C8=O)nn6)C5)C4)c3)cn2)C[C@@H]1O (some centres unmarked) , tested on SHP2 protein (Homo sapiens): > 1000 nM

Noted DC50 for CC1(N)CCN(c2cnc(Sc3cccc(NC(=O)CCC(=O)N4CCN(CCCCCCCCC(=O)NCc5ccc6c(c5)CN(C5CCC(=O)NC5=O)C6=O)CC4)c3)cn2)CC1 (centres unmarked) , tested on SHP2 protein (Homo sapiens): < 100 nM

Noted DC50 for CC(=O)NC1(C)CCN(c2cnc(Sc3cccc(NC(=O)CCCCCCCCN4CCN(c5ncc(C(=O)NCc6ccc7c(c6)CN(C6CCC(=O)NC6=O)C7=O)cn5)CC4)c3)cn2)CC1 (centres unmarked) , tested on SHP2 protein (Homo sapiens): > 1000 nM

Noted DC50 for Cc1ncsc1-c1ccc([C@H](C)NC(=O)[C@@H]2C[C@@H](O)CN2C(=O)[C@@H](NC(=O)c2cnc(N3CCN(CCOCCOCC(=O)Nc4cccc(Sc5cnc(N6CCC(C)(N)CC6)cn5)c4)CC3)nc2)C(C)(C)C)cc1 , tested on SHP2 protein (Homo sapiens): < 100 nM

Noted DC50 for CC1(N)CCN(c2cnc(Sc3cccc(NC(=O)CCN4CC5(CCN(c6ccc(COc7cccc8c7CN(C7CCC(=O)NC7=O)C8=O)nn6)C5)C4)c3)cn2)CC1 (centres unmarked) , tested on SHP2 protein (Homo sapiens): > 1000 nM

Noted DC50 for CN(Cc1ccc2c(c1)CN(C1CCC(=O)NC1=O)C2=O)C(=O)c1ccc(N2CC[C@@H](OCCCCCCCC(=O)Nc3cccc(Sc4cnc(N5CCC(C)(N)CC5)cn4)c3)[C@@H](F)C2)nn1 (some centres unmarked) , tested on SHP2 protein (Homo sapiens): < 100 nM

Noted DC50 for Cc1ncsc1-c1ccc([C@H](C)NC(=O)[C@@H]2C[C@@H](O)CN2C(=O)[C@@H](NC(=O)c2cnc(N3CC(OCCCCCCCCC(=O)Nc4ccc(Sc5cnc(N6CCC(C)(N)CC6)cn5)cc4)C3)nc2)C(C)(C)C)cc1 , tested on SHP2 protein (Homo sapiens): < 100 nM

Noted DC50 for CC1(N)CCN(c2cnc(Sc3cccc(NC(=O)CCC(=O)NCCOCCOCCOCC(=O)Nc4ccc5c(c4)C(=O)N(C4CCC(=O)NC4=O)C5)c3)cn2)CC1 (centres unmarked) , tested on SHP2 protein (Homo sapiens): > 1000 nM

Noted DC50 for CC1(N)CCN(c2cnc(Sc3cccc(NC(=O)CCCCCCCN4CCN(c5ncc(C(=O)NCc6ccc7c(c6)CN(C6CCC(=O)NC6=O)C7=O)cn5)CC4)c3)cn2)CC1 (centres unmarked) , tested on SHP2 protein (Homo sapiens): < 100 nM

Noted DC50 for CC1(N)CCN(c2cnc(Sc3cccc(NC(=O)CCCCCCCN4CC5(CCN(c6ncc(C(=O)NCc7ccc8c(c7)CN(C7CCC(=O)NC7=O)C8=O)cn6)C5)C4)c3)cn2)CC1 (centres unmarked) , tested on SHP2 protein (Homo sapiens): < 100 nM

Noted DC50 for CN(Cc1ccc2c(c1)CN(C1CCC(=O)NC1=O)C2=O)C(=O)c1ccc(N2CCC3(CN(CCCCCC(=O)Nc4cccc(Sc5cnc(N6CCC(C)(N)CC6)cn5)c4)C3)C2)nn1 (centres unmarked) , tested on SHP2 protein (Homo sapiens): < 100 nM

Noted DC50 for CC1(N)CCN(c2cnc(Sc3cccc(NC(=O)CCCCCCN4CC5(CCN(C6CC(C(=O)NCc7ccc8c(c7)CN(C7CCC(=O)NC7=O)C8=O)C6)C5)C4)c3)cn2)CC1 (centres unmarked) , tested on SHP2 protein (Homo sapiens): 100 to 1000 nM

Noted DC50 for NC1(CF)CCN(c2cnc(Sc3cccc(NC(=O)CCCCCCCO[C@H]4CCN(c5ccc(C(=O)NCc6ccc7c(c6)CN(C6CCC(=O)NC6=O)C7=O)nn5)C4)c3)cn2)CC1 (some centres unmarked) , tested on SHP2 protein (Homo sapiens): < 100 nM

Noted DC50 for CC1(N)CCN(c2cnc(Sc3cccc(NC(=O)CCCCC(=O)Nc4cccc5c4CN(C4CCC(=O)NC4=O)C5=O)c3)cn2)CC1 (centres unmarked) , tested on SHP2 protein (Homo sapiens): > 1000 nM

Noted DC50 for Cc1ncsc1-c1ccc([C@H](C)NC(=O)[C@@H]2C[C@@H](O)CN2C(=O)[C@@H](NC(=O)c2ccc(N3CC4CN(CCCCCCCC(=O)Nc5cccc(Sc6cnc(N7CCC(C)(N)CC7)cn6)c5)CC4C3)nn2)C(C)(C)C)cc1 (some centres unmarked) , tested on SHP2 protein (Homo sapiens): < 100 nM
